# method-description: Partition coefficient (logP)
# Type: physicochemical
# reported-conditions: octanol/water
Exercise: state measured logP for each of the compounds provided.
Form: value (number only, do not type unit).

Exam item: Note down logP recorded for C[C@@H]1CC[C@H]2CC(=O)N(C)C3O[C@@]4(C)CC[C@@H]1[C@]32OO4 (some centres undefined)
Marked response: 1.55

Exam item: In one line, give reported logP of the entry C[C@@H]1CC[C@H]2CC(=O)N(CCCc3ccccc3)C3O[C@@]4(C)CC[C@@H]1[C@]32OO4 (some centres undefined) .
Marked response: 4.03

Exam item: Please list logP recorded for the compound CCCN1C(=O)C[C@@H]2CC[C@@H](C)[C@@H]3CC[C@@]4(C)OO[C@@]23C1O4 (some centres undefined)
Marked response: 2.61

Exam item: Read off the recorded logP for C[C@@H]1CC[C@H]2CC(=O)N(CC(=O)O)C3O[C@@]4(C)CC[C@@H]1[C@]32OO4 (some centres undefined)
Marked response: 1.69

Exam item: Look up and report measured logP for this entry: CC(C)CCN1C(=O)C[C@@H]2CC[C@@H](C)[C@@H]3CC[C@@]4(C)OO[C@@]23C1O4 (some centres undefined)
Marked response: 3.54

Exam item: Report measured logP; entry is CCCCCN1C(=O)C[C@@H]2CC[C@@H](C)[C@@H]3CC[C@@]4(C)OO[C@@]23C1O4 (some centres undefined)
Marked response: 3.67

Exam item: Report logP for C[C@@H]1CC[C@H]2CC(=O)N(Cc3ccc(Cl)cc3)C3O[C@@]4(C)CC[C@@H]1[C@]32OO4 (some centres undefined)
Marked response: 3.96

Exam item: Please look at this compound and report its logP: CC(C)CN1C(=O)C[C@@H]2CC[C@@H](C)[C@@H]3CC[C@@]4(C)OO[C@@]23C1O4 (some centres undefined)
Marked response: 3.01

Exam item: Please look at this compound and report its logP: C[C@@H]1CC[C@H]2CC(=O)N(CCc3ccccc3)C3O[C@@]4(C)CC[C@@H]1[C@]32OO4 (some centres undefined)
Marked response: 3.5
